The origin of these recorded values is patent US12466827B2.

- assay.system: human recombinant HDAC6 (Homo sapiens, UniProt Q9UBN7)
- Construct: purchased Calbiochem Inc. 382180
- method.notes: In vitro HDAC enzyme activity inhibition assay (HDAC6)
- Format: biochemical
- experimental.parameters: HDAC6 over HDAC1
reported.metric: HDAC6 selectivity (fold)

O=C(N1CCN(S(=O)(=O)N(Cc2cn3ccc(-c4nnc(C(F)F)o4)cc3n2)c2ccccc2)CC1)C(F)(F)F    327

(a) O=S(=O)(N1CCN(C2COC2)CC1)N(Cc1cn2ccc(-c3nnc(C(F)F)o3)cc2n1)c1ccccc1
(b) O=S(=O)(N1CCN(c2ncccn2)CC1)N(Cc1cn2ccc(-c3nnc(C(F)F)o3)cc2n1)c1cccc(F)c1
Which entry shows the lesser value of HDAC6 selectivity (fold) here, a or b ? State the label of the item chosen.
b
(b: 309 fold, a: 588 fold)

###

- assay.system: human recombinant HDAC6 (Homo sapiens)
- method.notes: In vitro HDAC enzyme activity inhibition assay (HDAC6)
- experimental.parameters: same protocol as the HDAC1 test, human recombinant HDAC6 (Calbiochem)
reported.metric: IC50 (nM)

Example molecules with recorded IC50:
O=S(=O)(C1CCN(C2COC2)CC1)N(Cc1cn2ccc(-c3nnc(C(F)F)o3)cc2n1)c1ccccc1 [Compound 3779]    156
O=S(=O)(C1CCN(C2CCC2)CC1)N(Cc1cn2ccc(-c3nnc(C(F)F)o3)cc2n1)c1ccccc1 [Compound 4217]    122
O=C(CO)N1CCN(S(=O)(=O)N(Cc2cn3ccc(-c4nnc(C(F)F)o4)cc3n2)c2ccccc2)CC1 [Compound 4267]    95.5

(P) CC(=O)N1CCN(S(=O)(=O)N(Cc2cn3ccc(-c4nnc(C(F)F)o4)cc3n2)c2ccccc2)CC1 [Compound 4265]
(Q) O=S(=O)(N1CCN(C2CC3(CCC3)C2)CC1)N(Cc1cn2ccc(-c3nnc(C(F)F)o3)cc2n1)c1cccc(F)c1 [Compound 4622]
# argmax over IC50 for candidates P and Q State the label of the item chosen.
Q
(Q: 182 nM, P: 85.5 nM)

###

- assay.system: human recombinant HDAC6 (Homo sapiens)
- Construct: purchased Calbiochem Inc. 382180
- method.notes: In vitro HDAC enzyme activity inhibition assay (HDAC6)
- Type: biochemical
- experimental.parameters: HDAC6 over HDAC1
reported.metric: HDAC6 selectivity (fold)

O=C(N1CCN(S(=O)(=O)N(Cc2cn3ccc(-c4nnc(C(F)F)o4)cc3n2)c2cccc(F)c2)CC1)C(F)(F)F    510

(a) O=C(C1CCC1)N1CCC(S(=O)(=O)N(Cc2cn3ccc(-c4nnc(C(F)F)o4)cc3n2)c2ccccc2)CC1
(b) CS(=O)(=O)N1CCN(S(=O)(=O)N(Cc2cn3ccc(-c4nnc(C(F)F)o4)cc3n2)c2ccccc2)CC1
Which entry shows the lesser value of HDAC6 selectivity (fold) here, a or b ? State the label of the item chosen.
b

###

- assay.system: human recombinant HDAC6 (Homo sapiens, UniProt Q9UBN7)
- Construct: purchased Calbiochem Inc. 382180
- Sequence (Q9UBN7 1-1215): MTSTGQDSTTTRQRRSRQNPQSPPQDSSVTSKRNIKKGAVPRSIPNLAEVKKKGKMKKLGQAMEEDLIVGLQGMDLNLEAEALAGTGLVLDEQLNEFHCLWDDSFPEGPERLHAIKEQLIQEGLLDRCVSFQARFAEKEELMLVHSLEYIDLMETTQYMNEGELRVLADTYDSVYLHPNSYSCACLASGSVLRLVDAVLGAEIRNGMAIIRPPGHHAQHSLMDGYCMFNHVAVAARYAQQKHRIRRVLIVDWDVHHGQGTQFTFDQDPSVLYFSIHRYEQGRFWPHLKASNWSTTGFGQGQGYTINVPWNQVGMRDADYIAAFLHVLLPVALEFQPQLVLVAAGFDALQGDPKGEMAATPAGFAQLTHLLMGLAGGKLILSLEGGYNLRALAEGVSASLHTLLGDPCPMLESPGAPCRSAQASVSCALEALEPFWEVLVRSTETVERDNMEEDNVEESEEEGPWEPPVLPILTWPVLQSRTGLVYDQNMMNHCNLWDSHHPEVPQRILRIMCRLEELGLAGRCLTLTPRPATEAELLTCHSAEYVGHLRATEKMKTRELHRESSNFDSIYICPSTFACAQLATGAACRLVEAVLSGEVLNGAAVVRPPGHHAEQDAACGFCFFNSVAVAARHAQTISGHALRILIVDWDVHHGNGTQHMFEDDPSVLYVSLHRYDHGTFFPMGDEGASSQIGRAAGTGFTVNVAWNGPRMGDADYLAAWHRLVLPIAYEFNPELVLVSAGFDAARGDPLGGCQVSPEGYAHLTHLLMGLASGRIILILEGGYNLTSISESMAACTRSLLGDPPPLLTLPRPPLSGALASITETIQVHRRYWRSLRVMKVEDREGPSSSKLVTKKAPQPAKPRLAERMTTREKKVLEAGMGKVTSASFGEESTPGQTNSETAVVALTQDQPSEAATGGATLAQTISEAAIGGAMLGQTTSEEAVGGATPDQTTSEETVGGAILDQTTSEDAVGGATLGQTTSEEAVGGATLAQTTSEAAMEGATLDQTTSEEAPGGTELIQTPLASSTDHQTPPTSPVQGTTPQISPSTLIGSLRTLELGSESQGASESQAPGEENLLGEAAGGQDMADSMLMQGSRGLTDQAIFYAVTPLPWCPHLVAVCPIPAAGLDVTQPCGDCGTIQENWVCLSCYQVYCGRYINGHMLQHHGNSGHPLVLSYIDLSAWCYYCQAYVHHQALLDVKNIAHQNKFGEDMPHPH
- method.notes: In vitro HDAC enzyme activity inhibition assay (HDAC6)
- Assay type: biochemical
- experimental.parameters: HDAC6 over HDAC1
reported.metric: HDAC6 selectivity (fold)

Example molecules with recorded HDAC6 selectivity (fold):
CCN1CCN(S(=O)(=O)N(Cc2cn3ccc(-c4nnc(C(F)F)o4)cc3n2)c2ccccc2)CC1    674
CC(C)N1CCC(S(=O)(=O)N(Cc2cn3ccc(-c4nnc(C(F)F)o4)cc3n2)c2cccc(F)c2)CC1    653
CN1CC2(C1)CN(S(=O)(=O)N(Cc1cn3ccc(-c4nnc(C(F)F)o4)cc3n1)c1ccccc1)C2    595

(a) O=C(C1CCC1)N1CCC(S(=O)(=O)N(Cc2cn3ccc(-c4nnc(C(F)F)o4)cc3n2)c2cccc(F)c2)CC1
(b) O=S(=O)(C1CCN(C2CC3(CCC3)C2)CC1)N(Cc1cn2ccc(-c3nnc(C(F)F)o3)cc2n1)c1cccc(F)c1
(c) O=C(CO)N1CCC(S(=O)(=O)N(Cc2cn3ccc(-c4nnc(C(F)F)o4)cc3n2)c2cccc(F)c2)CC1
Sort the molecules on HDAC6 selectivity (fold); start with the lowest figure. Use the labels to give the requested order.
b, a, c
